Ref: PubChem BioAssay (NCI)

System: UACC-62 melanoma
METHOD SUMMARY: NCI tumour cell line growth inhibition, 48 h
MEASUREMENT NAME: TGI

C[C@H](CCc1nc(C#N)c(N)o1)[C@H]1CC[C@H]2[C@@H]3[C@@H](O)CC4C[C@@H](O)CC[C@]4(C)[C@H]3C[C@@H](O)[C@]12C (stereo partly specified)	30.5 µM
Cc1ccc(C(=O)/C=C/c2ccccc2Cl)cc1	27.7 µM
CCOC(=O)c1cc(C(=O)c2cc(OC)cc(OC)c2)n2ncccc12	> 100 µM
CCCCNc1nc(SC)nc2nc[nH]c12	> 100 µM
CC1(C)[C@H](O)CC[C@]2(C)C3=CC[C@@]4(C)[C@@H]5C[C@](C)(CO)CC[C@]5(C)CC[C@]4(C)C3=CC[C@@H]12	> 100 µM
COc1cc(CNC(=O)CCCCCCCC/C=C/Br)ccc1O	> 10 µM

For the 7 compounds below, give their TGI values.
1. O=[N+]([O-])c1cc(Cl)ccc1S(=O)(=O)c1ccccc1
2. Cc1ccc(NC2=C(Cl)C(=O)c3nc(C)ccc3C2=O)cc1
3. O=C1OC(c2ccc([N+](=O)[O-])cc2)=N/C1=C\c1ccc(O)cc1
4. CCOC(=O)c1sc2nc(SC)nc(Nc3ccc(OC)c(OC)c3)c2c1N
5. O=C(c1cccs1)c1c(C(F)(F)F)n([O-])c2cc(F)c(F)cc2[n+]1=O
6. COC(=O)C1CCc2c(OC)ccc(OC)c2C1=O (stereo unspecified)
7. O=C(Nc1ccc(-n2cc(-c3ccncc3)c(-c3ccc(Cl)c(O)c3)n2)cc1)c1cc(Cl)cc(Cl)c1

a:
1. > 100 µM
2. 2.97 µM
3. > 100 µM
4. > 100 µM
5. 3.58 µM
6. > 100 µM
7. > 28.1 µM

Respectfully, I request TGI for each entry included below.
1. C/C=C/C=C/[C@H]1Cc2cc(O)cc(O)c2O1
2. C[C@]12CC[C@@H]3c4ccc(O)cc4CC[C@H]3[C@@H]1CC[C@@H]2NS(=O)(=O)c1cccc(Br)c1
3. CNC(=O)N(CCC#N)CCN(CCN(C(=O)NC)c1ccccc1)C(=O)NC
4. COc1cc2c(cc1OC)-c1c(cc(OC)c(OC)c1OC)C2=O
5. Cc1oc2c(c1C(=O)c1ccccc1)C(=O)c1ccccc1C2=O
6. CC1CC2C3CC(F)C4=CC(=O)C=CC4(C)C3(F)C(O)CC2(C)C1(O)C(=O)CO (stereo unspecified)

a:
> 100 µM
12.9 µM
> 100 µM
> 100 µM
7.72 µM
> 100 µM

Hello, I would appreciate it if you could give TGI for each entry below.
1. Cc1ccc2c(c1)NC(=O)C(N=[N+]=[N-])(c1ccccc1)C2=O (stereo unspecified)
2. CCC(=S)N(C)O

a:
1. 61.3 µM
2. 78.3 µM

---

System: NCI/ADR-RES ovarian
METHOD SUMMARY: NCI tumour cell line growth inhibition, 48 h
Would you kindly list TGI for each of these compounds?

c1ccc(-c2cc(-c3cc(-c4ccccn4)[nH]n3)n[nH]2)nc1	> 100 µM
C=CCSc1n[nH]c(-c2cccs2)n1	> 100 µM
O=C=Nc1ccc(Cc2ccc(N=C=O)cc2)cc1 (tested in a mixture with another compound)	> 25 µg/mL
CC1=COC2=C(C)C(=O)C(=O)c3c(C)ccc1c32	7.87 µM
CC[C@H](CCCCC1CC[C@@H]2CC(=O)C[C@H]12)OC (stereo not given in full)	> 100 µM
O=S(=O)(Nc1ccccc1S(=O)(=O)c1ccccc1)c1ccccc1	> 100 µM
COC(=O)[C@]1(c2cc3ccccc3[nH]2)CC2CN(CC(=O)N(C)OC)C1C1OC(C)(C)OC21 (stereo not given in full)	> 100 µM
Cc1cccc(C)c1NC(=S)/N=C/C1=C(O)c2ccccc2C1=O	> 100 µM

Return reported TGI values for all items listed beneath this line.
1. Nc1ncnc2c1ncn2CC(OCP(=O)(O)O)Oc1ccccc1 (stereo not given)
2. Cc1oc2c(c1C(=O)c1ccccc1)C(=O)c1ccccc1C2=O
3. O=[N+]([O-])c1ccc(N(CCO)CCO)c2c1no[n+]2[O-]
4. CC(=O)OC1CC(OC2C(O)CC(OC3C(O)CC(OC4CCC5(C)C(CCC6C5CC(O)C5(C)C(C7=CC(=O)OC7)CCC65O)C4)OC3C)OC2C)OC(C)C1O (stereo not given) (tested in a mixture with another compound)
5. O=[N+]([O-])c1ccc2nc(N/N=C/c3ccc(O)cc3)sc2c1

a:
1: > 100 µM; 2: 20.7 µM; 3: 6.41 µM; 4: 0.0732 µM; 5: > 100 µM

Give one value of TGI per listed compound.
1. C#C[C@]1(O)CC[C@H]2[C@@H]3CC=C4c5nc(Nc6ccc(OC)cc6OC)sc5CC[C@]4(C)[C@H]3CC[C@@]21C
2. O=C(Oc1ccc([N+](=O)[O-])cc1)N1CCC(C(O)(c2ccc3c(c2)OCO3)c2ccc3c(c2)OCO3)CC1
3. Cc1ccc(NC2=C(Cl)C(=O)c3nc(C)ccc3C2=O)cc1

a:
["17 µM", "> 100 µM", "4.62 µM"]

Provide reported TGI for each item, in the same order as listed.
1. C=CC(=O)Nc1cc2c(Nc3ccc(OCc4ccccn4)c(Cl)c3)ncnc2cc1OCCN1CCOCC1
2. NC(C(=O)O)C(N)C(=O)O (stereo not given)
3. CNC(=O)N(CCC#N)CCN(CCN(C(=O)NC)c1ccccc1)C(=O)NC
4. CN1c2ccccc2C2c3c(O)ccc(O)c3C=C([N+](=O)[O-])C21 (stereo not given)

a:
1. > 100 µM
2. > 100 µM
3. > 100 µM
4. > 20 µM
